value-kind: log10 Ki (log10 of the value in nM)
Kindly note that the scale is log10 and the underlying Ki is in nM.

Input line: Fill in the recorded log10 Ki for this compound, with human κ (CHO-KOR) opioid receptor (Homo sapiens) as test system: Cc1ccc(Cc2ccc3c(c2)[C@H](NC(=O)[C@@H](N)Cc2c(C)cc(O)cc2C)CCN3)cc1
Sequence (P41145 whole entry): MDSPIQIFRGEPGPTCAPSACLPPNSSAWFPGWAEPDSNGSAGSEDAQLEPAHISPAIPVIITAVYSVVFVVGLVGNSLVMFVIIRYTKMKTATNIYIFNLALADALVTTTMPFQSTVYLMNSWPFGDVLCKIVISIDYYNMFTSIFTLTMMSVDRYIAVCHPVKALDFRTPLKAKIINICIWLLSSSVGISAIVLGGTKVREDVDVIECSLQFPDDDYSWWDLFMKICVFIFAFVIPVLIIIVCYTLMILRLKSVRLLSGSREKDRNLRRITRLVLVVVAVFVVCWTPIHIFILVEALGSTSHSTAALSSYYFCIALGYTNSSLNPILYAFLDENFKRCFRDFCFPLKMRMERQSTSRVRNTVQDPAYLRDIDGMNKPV
Output line: 1.26

Input line: Fill in the recorded log10 Ki for this compound, with human κ (CHO-KOR) opioid receptor (Homo sapiens) as test system: CC(=O)N1CC[C@@H](NC(=O)[C@@H](N)Cc2c(C)cc(O)cc2C)c2cc(Oc3cccc(Cl)c3)ccc21
Output line: 1.32

Input line: Fill in the recorded log10 Ki for this compound, with human κ (CHO-KOR) opioid receptor (Homo sapiens) as test system: CCCCc1cc(Cc2ccccc2)cc2c1NCC[C@H]2NC(=O)[C@@H](N)Cc1c(C)cc(O)cc1C
Output line: 1.54

Input line: Fill in the recorded log10 Ki for this compound, with human κ (CHO-KOR) opioid receptor (Homo sapiens) as test system: CC(=O)N1CC[C@@H](NC(=O)[C@@H](N)Cc2c(C)cc(O)cc2C)c2cc(Cc3ccccc3)cc(Cc3ccccc3)c21
Output line: 1.08

Input line: Fill in the recorded log10 Ki for this compound, with human κ (CHO-KOR) opioid receptor (Homo sapiens) as test system: Cc1cc(O)cc(C)c1C[C@H](N)C(=O)N[C@@H]1CCNc2c(Br)cc(Cc3ccccc3)cc21
Output line: 1.43

Input line: Fill in the recorded log10 Ki for this compound, with human κ (CHO-KOR) opioid receptor (Homo sapiens) as test system: Cc1cc(O)cc(C)c1C[C@H](N)C(=O)N[C@@H]1CCN2CCCc3cc(Cc4ccccc4)cc1c32
Output line: 0.82

Input line: Fill in the recorded log10 Ki for this compound, with human κ (CHO-KOR) opioid receptor (Homo sapiens) as test system: Cc1cc(O)cc(C)c1C[C@H](N)C(=O)N[C@@H]1CCNc2ccc(CN3CCC[C@H]4CCCC[C@@H]43)cc21
Output line: 0.85

Input line: Fill in the recorded log10 Ki for this compound, with human κ (CHO-KOR) opioid receptor (Homo sapiens) as test system: Cc1cc(O)cc(C)c1C[C@H](N)C(=O)N[C@@H]1CCNc2ccc(CN3CCc4ccc(F)cc4C3)cc21
Output line: 0.98

Input line: Fill in the recorded log10 Ki for this compound, with human κ (CHO-KOR) opioid receptor (Homo sapiens) as test system: CC(=O)N1CC[C@@H](NC(=O)[C@@H](N)Cc2c(C)cc(O)cc2C)c2cc(CN3CCc4ccc(F)cc4C3)ccc21
Output line: 1.21

Input line: Fill in the recorded log10 Ki for this compound, with human κ (CHO-KOR) opioid receptor (Homo sapiens) as test system: Cc1cc(O)cc(C)c1C[C@H](N)C(=O)N[C@@H]1CCNc2ccc(Cc3ccc4c(c3)OCCO4)cc21
Output line: 2.06

Input line: Fill in the recorded log10 Ki for this compound, with human κ (CHO-KOR) opioid receptor (Homo sapiens) as test system: COC(=O)N1CC[C@@H](NC(=O)[C@@H](N)Cc2c(C)cc(O)cc2C)c2cc(CC3Cc4ccccc4C3)ccc21
Output line: 1.02

Input line: Fill in the recorded log10 Ki for this compound, with human κ (CHO-KOR) opioid receptor (Homo sapiens) as test system: CCCc1cc(Cc2ccccc2)cc2c1NCC[C@H]2NC(=O)[C@@H](N)Cc1c(C)cc(O)cc1C
Output line: 1.99

Input line: Fill in the recorded log10 Ki for this compound, with human κ (CHO-KOR) opioid receptor (Homo sapiens) as test system: Cc1cc(O)cc(C)c1C[C@H](N)C(=O)NC1CCNc2ccc(Oc3ccccc3)cc21 (some centres unmarked)
Output line: 1.82

Input line: Fill in the recorded log10 Ki for this compound, with human κ (CHO-KOR) opioid receptor (Homo sapiens) as test system: Cc1cc(O)cc(C)c1C[C@H](N)C(=O)N(C1CC1)C1CCNc2ccc(Cc3ccccc3)cc21 (some centres unmarked)
Output line: 1.46
